B1: VH:VL chains; a variant is named by its letters at X, in order (parent)
chain 1: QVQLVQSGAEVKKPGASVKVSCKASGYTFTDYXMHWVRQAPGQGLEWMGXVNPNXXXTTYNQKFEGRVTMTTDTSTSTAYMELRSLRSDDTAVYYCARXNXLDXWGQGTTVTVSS
chain 2: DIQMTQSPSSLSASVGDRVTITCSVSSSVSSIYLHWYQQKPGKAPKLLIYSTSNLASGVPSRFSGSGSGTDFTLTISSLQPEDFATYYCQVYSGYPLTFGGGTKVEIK

# Variants of: B1
# test protocol: yeast display scFab, FACS + sequencing
recorded metric: non-specific binding call

Please review the entries below; each comes with its answer.
{"mutation code": "YRGRSAWD", "recorded metric": "non-specific binding call", "endpoint value": "binds"}
{"mutation code": "FRTGGSAD", "recorded metric": "non-specific binding call", "endpoint value": "binds"}
{"mutation code": "YRGRSSAA", "recorded metric": "non-specific binding call", "endpoint value": "binds"}
{"mutation code": "YRKGGAGF", "recorded metric": "non-specific binding call", "endpoint value": "binds"}
{"mutation code": "YRGANVVY", "recorded metric": "non-specific binding call", "endpoint value": "binds"}
{"mutation code": "YRRRGFGY", "recorded metric": "non-specific binding call", "endpoint value": "binds"}

Hi, could you look up non-specific binding call for each item in my list?
1. YRRRTAAV
2. VTGGDDVY

binds
no binding

Hi, could you look up non-specific binding call for each item in my list?
1. SEARSSGF
2. VTGGDDWY
3. DAGGASSS
4. FKAKGAWD
5. YKGKGSVS
6. SEEEGSAA

1: no binding; 2: no binding; 3: no binding; 4: binds; 5: binds; 6: no binding
